Value source: patent US11993570B2

assay: Analysis of luciferase mRNA lipid particle composition (Production Example 1); assay type: physicochemical; conditions: lipid particle cationic lipid:DPPC:cholesterol:GM-020=60:10.6:28:1.4 with luciferase mRNA; Zetasizer Nano ZS
Below: a set of entries, each annotated with reported Particle size.
Response body: numeric value in nm, unit text excluded.

[[record]]
mol_smiles = "CCCC/C=C\\CCCCCCCC(=O)OCC(COC(=O)CCCCCCC/C=C\\CCCC)(COC(=O)CCCCCCCCCCC)COC(=O)CCCN(C)C"
quantitative_result = 83

[[record]]
mol_smiles = "CCCC/C=C\\CCCCCCCC(=O)OCC(COC(=O)CCCCCCC/C=C\\CCCC)(COC(=O)CCCCCCC/C=C\\CCCCCC)COC(=O)CCCCN(C)C"
quantitative_result = 91


Could you share which Particle size value was measured for "CCCC/C=C\CCCCCCCC(=O)OCC(COC(=O)CCCCCCC/C=C\CCCC)(COC(=O)CCCCCCC/C=C\CCCC)COC(=O)CCCCCN(C)C" ?
93

----------
assay: Analysis of luciferase mRNA lipid particle composition (Production Example 1); format: physicochemical; conditions: lipid particle cationic lipid:DPPC:cholesterol:GM-020=60:10.6:28:1.4 with luciferase mRNA; Zetasizer Nano ZS
Below: a set of entries, each annotated with reported Particle size.
Express the reported value numerically, then name its unit.

[[record]]
compound = "CCCC/C=C\\CCCCCCCC(=O)OCC(COC(=O)CCCCCCC/C=C\\CCCC)(COC(=O)CCCCCCC/C=C\\CCCC)COC(=O)CCCCN(C)C [Example 2]"
measured_attribute = "Particle size"
result = "90 nm"

[[record]]
compound = "CCCC/C=C\\CCCCCCCC(=O)OCC(COC(=O)CCCCCCC)(COC(=O)CCCCCCC/C=C\\CCCC)COC(=O)CCN(C)C [Example 8]"
measured_attribute = "Particle size"
result = "67 nm"


Consider the additional compound presented here.
Could you share which Particle size value was measured for CCCC/C=C\CCCCCCCC(=O)OCC(COC(=O)CCCCCCC/C=C\CCCC)(COC(=O)CCCCCCC/C=C\CCCC)COC(=O)CCCN(C)C [Example 1] ?
71 nm

----------
assay: Analysis of Col1a1/FVII siRNA lipid particle composition (Production Example 2); assay type: physicochemical; details: lipid particle composition with Col1a1 and FVII siRNA; RiboGreen
Measured attribute: siRNA Concentration (µg/mL)
Response body: numeric value in µg/mL, unit text excluded.

Known siRNA Concentration results, listed for orientation:
[[record]]
mol_smiles = "CCCC/C=C\\CCCCCCCC(=O)OCC(COC(=O)CCCCCCC/C=C\\C/C=C\\CCCCC)(COC(=O)CCCCCCC/C=C\\CCCC)COC(=O)CCCCN(C)C"
quantitative_result = 320

[[record]]
mol_smiles = "CCCC/C=C\\CCCCCCCC(=O)OCC(COC(=O)CCCCCCC/C=C\\CCCC)(COC(=O)CCCCCCC/C=C\\CCCC)COC(=O)CCCCN(C)C"
quantitative_result = 251

[[record]]
mol_smiles = "CCCC/C=C\\CCCCCCCC(=O)OCC(COC(=O)CCCCCCC/C=C\\CCCC)(COC(=O)CCCCCCC/C=C\\CCCC)COC(=O)CCCCCN(C)C"
quantitative_result = 196

[[record]]
mol_smiles = "CCCC/C=C\\CCCCCCCC(=O)OCC(COC(=O)CCCCCCC/C=C\\CCCC)(COC(=O)CCCCCCC/C=C\\CCCCCCCC)COC(=O)CCCCN(C)C"
quantitative_result = 333

[[record]]
mol_smiles = "CCCC/C=C\\CCCCCCCC(=O)OCC(COC(=O)CCCCCCC/C=C\\CCCC)(COC(=O)CCCCCCCCC)COC(=O)CCCN(C)C"
quantitative_result = 307


Could you share which siRNA Concentration value was measured for "CCCC/C=C\CCCCCCCC(=O)OCC(COC(=O)CCCCCCC/C=C\CCCC)(COC(=O)CCCCCCC/C=C\CCCCCC)COC(=O)CCCCN(C)C" ?
367

Could you share which siRNA Concentration value was measured for "CCCC/C=C\CCCCCCCC(=O)OCC(COC(=O)CCCCCCC/C=C\CCCC)(COC(=O)CCCCCCC/C=C\CCCCCC)COC(=O)CCCN(C)C" ?
355

Could you share which siRNA Concentration value was measured for "CCCC/C=C\CCCCCCCC(=O)OCC(COC(=O)CCCCCCC/C=C\CCCC)(COC(=O)CCCCCCCCCCC)COC(=O)CCCN(C)C" ?
402
